Molecular target: T1, cyno IL-33 N-His (cynomolgus monkey)
T1 chain: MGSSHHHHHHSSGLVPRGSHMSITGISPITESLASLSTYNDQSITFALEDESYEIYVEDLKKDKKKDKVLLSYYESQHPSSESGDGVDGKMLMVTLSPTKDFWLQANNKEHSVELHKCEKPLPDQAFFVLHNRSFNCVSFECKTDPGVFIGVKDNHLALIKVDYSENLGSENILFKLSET
Assay: SPR Biacore T200, 25 C
Form field: kon (one value per entry).
Value kind: kon (M⁻¹ s⁻¹)

Binder	Value kind	Val
H4H9675P (antibody, V domains shown) VH: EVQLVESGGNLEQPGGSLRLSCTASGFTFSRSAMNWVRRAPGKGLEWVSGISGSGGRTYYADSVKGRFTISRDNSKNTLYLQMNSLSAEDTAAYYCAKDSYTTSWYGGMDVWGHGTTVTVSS VL: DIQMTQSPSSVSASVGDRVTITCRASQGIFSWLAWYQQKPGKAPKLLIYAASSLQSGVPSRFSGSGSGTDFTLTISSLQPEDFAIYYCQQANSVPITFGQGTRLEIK	kon	362000
H4H9667P (antibody, V domains shown) VH: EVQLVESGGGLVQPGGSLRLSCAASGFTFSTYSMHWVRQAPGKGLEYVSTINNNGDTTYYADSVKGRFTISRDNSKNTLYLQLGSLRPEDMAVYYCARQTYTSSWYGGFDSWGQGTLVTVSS VL: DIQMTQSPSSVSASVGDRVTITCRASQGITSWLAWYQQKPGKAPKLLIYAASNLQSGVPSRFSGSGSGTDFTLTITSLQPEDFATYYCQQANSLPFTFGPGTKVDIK	kon	208000
H4H9671P (antibody, V domains shown) VH: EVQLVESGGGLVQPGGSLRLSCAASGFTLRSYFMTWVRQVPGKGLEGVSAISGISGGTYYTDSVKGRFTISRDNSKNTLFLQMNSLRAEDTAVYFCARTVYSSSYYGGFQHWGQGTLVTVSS VL: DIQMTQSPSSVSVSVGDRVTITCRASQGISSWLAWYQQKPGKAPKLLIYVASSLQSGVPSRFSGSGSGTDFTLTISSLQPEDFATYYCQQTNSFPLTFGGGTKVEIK	kon	533000
H4H9662P (antibody, V domains shown) VH: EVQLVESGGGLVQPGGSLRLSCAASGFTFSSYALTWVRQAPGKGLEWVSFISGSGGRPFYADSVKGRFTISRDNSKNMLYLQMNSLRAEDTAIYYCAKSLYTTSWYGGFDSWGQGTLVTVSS VL: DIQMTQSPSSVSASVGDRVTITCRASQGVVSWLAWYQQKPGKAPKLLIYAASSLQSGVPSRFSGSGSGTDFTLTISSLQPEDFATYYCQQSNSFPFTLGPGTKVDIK	kon	245000
